Below: a set of entries, each annotated with reported hERG current change (%, negative = inhibition) at 10uM.
# assaySystem: human ether-à-go-go-related gene (hERG) potassium channel (human);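 also: peak tail current of the secondary pulse compared with the same well before compound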
# testDetails: primary screen, population patch clamp on CHO cells stably expressing hERG; higher = less effect of the substance
In all, about 310,000 compounds went through this assay and about 14,000 (4.5%) showed an effect of 50% or more. The effect is printed as a negative number. This is one part of a sample in which strong results are shown more often than they occur.
# value in %; strip the unit string

Examples with their reported hERG current change (%, negative = inhibition) at 10uM follow.
QUERY: I am curious: what hERG current change (%, negative = inhibition) at 10uM value has been reported for `COc1ccc(/C=N/N2CCN(c3ccncc3S(=O)(=O)N3CCCCC3)CC2)cc1` ?
RESULT: 10.3

QUERY: Give its hERG current change (%, negative = inhibition) at 10uM value. Item: `O=C1c2ccc3c4c(ccc(c24)C(=O)N1c1cccc(O)c1)C(=O)N(c1cccc(O)c1)C3=O`
RESULT: 8.86

Kindly review the next compound as well.
QUERY: Given the compound C=CCNC(=O)C1CC(=O)N(c2ccc(OCC(=O)Nc3ccc(OC)cc3)cc2)C1 (centres unmarked) , what is its reported hERG current change (%, negative = inhibition) at 10uM?
RESULT: -3.5

* * *

# assaySystem: human ether-à-go-go-related gene (hERG) potassium channel (human);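 also: peak tail current of the secondary pulse compared with the same well before compound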
# testDetails: primary screen, population patch clamp on CHO cells stably expressing hERG; higher = less effect of the substance
In all, about 310,000 compounds went through this assay and about 14,000 (4.5%) showed an effect of 50% or more. Effects have a minus sign here. Many of the other results were omitted from the sample, so strong results are more common in it than they were.
In this section we review reported hERG current change (%, negative = inhibition) at 10uM values for a set of compounds.
Write down the numeric answer in % and omit the unit.

// worked examples, hERG current change (%, negative = inhibition) at 10uM included
QUERY: Fill in the blank: the reported hERG current change (%, negative = inhibition) at 10uM of `O=c1c2ccccc2nnn1CSc1nnc(-c2cccnc2)n1-c1ccccc1F` is ____.
RESULT: 11.5

QUERY: Fill in: hERG current change (%, negative = inhibition) at 10uM of `COc1ccc(C(=O)C2CCN(C(=O)c3ccco3)CC2)cc1` is ___
RESULT: -13.4

QUERY: hERG current change (%, negative = inhibition) at 10uM for `CCOC(=O)Nc1ccc(S(=O)(=O)Nc2cc(C)on2)cc1` ?
RESULT: 6.84

***
QUERY: hERG current change (%, negative = inhibition) at 10uM for CCOC(=O)c1ccc(NC(=O)Cn2cc3c(n2)CCC(C)C3)cc1 (stereo not drawn) ?
RESULT: -4.16

QUERY: Data request, read-out hERG current change (%, negative = inhibition) at 10uM, for `COc1ccc(C(=O)C2CCN(C(=O)c3ccc(C)cc3)CC2)cc1`
RESULT: -66.3

QUERY: Item under review: `O/N=C/C1=C(Cl)c2ccccc2CC1` . Reported hERG current change (%, negative = inhibition) at 10uM?
RESULT: -4.9

QUERY: State the recorded hERG current change (%, negative = inhibition) at 10uM for this entry: `Cc1cc(C)c2[nH]c(O)c(N=NC3=NC(=O)CS3)c2c1`
RESULT: -19.6

QUERY: May I ask what hERG current change (%, negative = inhibition) at 10uM has been recorded for [O-][n+]1c2ccccc2c2n1CCN1CCOC21c1ccc(Cl)cc1 (stereo not drawn) ?
RESULT: -42.3

QUERY: Return reported hERG current change (%, negative = inhibition) at 10uM; argument: `O=C(CCN1C(=O)S/C(=C\c2ccccc2)C1=O)NCCCn1ccnc1`
RESULT: -38.4

QUERY: Give its hERG current change (%, negative = inhibition) at 10uM value. Item: `COc1ccc(C(=O)C2CCN(C(=O)c3ccc(OC)cc3)CC2)cc1`
RESULT: -77.1

QUERY: Suppose we examine the compound `Cn1c2c(c(=O)n(C)c1=O)CN(Cc1ccco1)CN2` ; what hERG current change (%, negative = inhibition) at 10uM value has been reported?
RESULT: 4.7

QUERY: Fill blank: measured hERG current change (%, negative = inhibition) at 10uM of the compound `Cc1ccc(C(=O)C2CCN(C(=O)c3ccc(C)cc3)CC2)cc1` is ____.
RESULT: -36.8

* * *

# assaySystem: human ether-à-go-go-related gene (hERG) potassium channel (human, UniProt Q12809);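 also: peak tail current of the secondary pulse compared with the same well before compound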
# Sequence (Q12809 whole entry, looked up): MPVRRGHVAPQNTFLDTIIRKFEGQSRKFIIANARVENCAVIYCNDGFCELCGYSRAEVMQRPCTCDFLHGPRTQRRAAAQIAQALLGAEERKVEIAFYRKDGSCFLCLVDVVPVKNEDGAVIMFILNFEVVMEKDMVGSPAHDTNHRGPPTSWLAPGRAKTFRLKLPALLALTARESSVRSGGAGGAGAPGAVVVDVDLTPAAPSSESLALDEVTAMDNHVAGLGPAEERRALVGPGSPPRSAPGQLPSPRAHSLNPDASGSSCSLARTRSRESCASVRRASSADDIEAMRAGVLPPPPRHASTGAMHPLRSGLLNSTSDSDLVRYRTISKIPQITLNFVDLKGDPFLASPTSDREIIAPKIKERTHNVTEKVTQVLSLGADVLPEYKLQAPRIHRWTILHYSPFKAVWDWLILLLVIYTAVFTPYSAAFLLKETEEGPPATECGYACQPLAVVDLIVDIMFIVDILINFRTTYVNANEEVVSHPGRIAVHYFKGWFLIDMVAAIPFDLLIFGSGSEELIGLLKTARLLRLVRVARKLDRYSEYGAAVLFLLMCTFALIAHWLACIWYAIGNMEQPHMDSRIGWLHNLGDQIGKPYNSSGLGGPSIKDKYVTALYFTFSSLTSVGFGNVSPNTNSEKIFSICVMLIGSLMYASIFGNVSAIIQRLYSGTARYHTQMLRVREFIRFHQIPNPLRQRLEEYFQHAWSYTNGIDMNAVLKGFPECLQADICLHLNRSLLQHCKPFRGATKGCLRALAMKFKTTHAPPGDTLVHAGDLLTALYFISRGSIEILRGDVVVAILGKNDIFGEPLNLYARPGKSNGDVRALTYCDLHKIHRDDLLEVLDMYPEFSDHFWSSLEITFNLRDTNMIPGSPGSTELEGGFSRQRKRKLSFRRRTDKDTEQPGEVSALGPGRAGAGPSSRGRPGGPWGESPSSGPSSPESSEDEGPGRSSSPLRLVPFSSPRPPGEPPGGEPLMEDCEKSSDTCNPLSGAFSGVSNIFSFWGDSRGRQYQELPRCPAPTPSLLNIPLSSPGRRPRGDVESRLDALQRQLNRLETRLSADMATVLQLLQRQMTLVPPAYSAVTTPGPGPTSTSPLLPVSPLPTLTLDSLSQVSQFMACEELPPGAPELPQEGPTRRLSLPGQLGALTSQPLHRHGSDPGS
# testDetails: primary screen, population patch clamp on CHO cells stably expressing hERG; higher = less effect of the substance
# Experimental: Briefly, Chinese hamster ovary (CHO) cells stably expressing the hERG channel were dislodged from tissue culture flasks and dispensed into PPC plates. […] During the recording, background leak currents were estimated by a 100 ms step to -80 mV from an initial holding potential of -70 mV and subtracted from the subsequent current measurement. The campaign was conducted in two phases using slight differences in recording protocol. […]
In all, about 310,000 compounds went through this assay and about 14,000 (4.5%) showed an effect of 50% or more. Effects have a minus sign here. For the sample, strong results were picked, then their nearest neighbours and some compounds at random.
Outcome label depends on hERG current change (%, negative = inhibition) at 10uM relative to -10%: at/above gives y, below gives n.

Examples from the recorded data:
QUERY: Does the reported hERG current change (%, negative = inhibition) at 10uM for `Cc1cc(C)n2nc(-c3sccc3-n3c(C)ccc3C)cc2n1` fall at or above the -10% mark?
RESULT: y

QUERY: Has `CN(CC(=O)Nc1cccc(F)c1)C(=O)CCNC(=O)c1ccco1` a recorded hERG current change (%, negative = inhibition) at 10uM greater than or equal to -10%?
RESULT: y

QUERY: Quick check: does `Cc1ccc(S(=O)(=O)NCC(=O)NCCc2c[nH]c3ccccc23)cc1C` have hERG current change (%, negative = inhibition) at 10uM greater than or equal to -10%?
RESULT: y

QUERY: State whether the measured hERG current change (%, negative = inhibition) at 10uM reaches -10%, counting equality as reaching it, for `CNC(=O)[C@@H]1C[C@H]1[C@@H](NC(=O)OCc1ccccc1)c1ccccc1`
RESULT: n

QUERY: Reported hERG current change (%, negative = inhibition) at 10uM reaches at least -10% for `O=C(/C=C/c1ccc(Cl)cc1)N1CCN(c2ccccn2)CC1` ?
RESULT: n

QUERY: State whether the measured hERG current change (%, negative = inhibition) at 10uM reaches -10%, counting equality as reaching it, for Cc1cc(NC(=O)C(Cl)c2ccccc2)no1 (centres unmarked)
RESULT: y

QUERY: Say whether `O=C(COc1ccc(Br)cc1)Nc1ccccc1C(=O)NC1CC1` shows hERG current change (%, negative = inhibition) at 10uM of -10% or more.
RESULT: y

QUERY: Confirm if hERG current change (%, negative = inhibition) at 10uM reported for the compound `CCCc1cc(=O)oc2cc(OCC(=O)N3CCN(Cc4ccc5c(c4)OCO5)CC3)ccc12` is -10% or above.
RESULT: n

New cases:
QUERY: State whether the measured hERG current change (%, negative = inhibition) at 10uM reaches -10%, counting equality as reaching it, for `COc1cc2c3nnc(-c4ccccc4)c-3cn(Cc3ccc(F)cc3)c2cc1OC`
RESULT: n

* * *

# assaySystem: human ether-à-go-go-related gene (hERG) potassium channel (human, UniProt Q12809);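 also: peak tail current of the secondary pulse compared with the same well before compound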
# testDetails: primary screen, population patch clamp on CHO cells stably expressing hERG; higher = less effect of the substance
# Procedure: Briefly, Chinese hamster ovary (CHO) cells stably expressing the hERG channel were dislodged from tissue culture flasks and dispensed into PPC plates. […] During the recording, background leak currents were estimated by a 100 ms step to -80 mV from an initial holding potential of -70 mV and subtracted from the subsequent current measurement. The campaign was conducted in two phases using slight differences in recording protocol. […]
About 14,000 (4.5%) of roughly 310,000 compounds showed an effect of 50% or more. Effects have a minus sign here. What follows is part of a selection rich in strong results, with near analogues and random picks from the rest.
Outcome: 1.0 for hERG current change (%, negative = inhibition) at 10uM of at least -30%; 0.0 for anything lower.

Worked examples follow.
QUERY: Identify whether the reported hERG current change (%, negative = inhibition) at 10uM of the following compound is -30% or greater: `CN1CCc2c(sc(NC(=O)Cc3ccccc3)c2C(N)=O)C1.Cl`
RESULT: 1.0

QUERY: Is hERG current change (%, negative = inhibition) at 10uM at least -30%? Consider `CC(C)N1CCc2c(sc(NC(=O)Cc3ccccc3)c2C#N)C1.Cl`
RESULT: 1.0

QUERY: Dear colleague, could you confirm whether `COc1ccc(NC(C)=O)cc1NC(=O)CN1CCN(C2c3ccccc3-c3ccccc32)CC1` has hERG current change (%, negative = inhibition) at 10uM at or above -30%?
RESULT: 1.0

QUERY: # check: hERG current change (%, negative = inhibition) at 10uM of `CCN1CCc2c(sc(NC(=O)COc3ccccc3)c2C(=O)OC)C1.Cl` is greater than or equal to -30%
RESULT: 0.0

QUERY: Would you say `CCN1CCc2c(sc(NC(=O)CN3C(=O)c4ccccc4C3=O)c2C(N)=O)C1.Cl` shows hERG current change (%, negative = inhibition) at 10uM at minimum -30%?
RESULT: 0.0

Now take the following compound into account.
QUERY: Determine whether this compound has hERG current change (%, negative = inhibition) at 10uM no lower than -30%: CC1Cc2nc(SCC(=O)NCc3ccco3)n(-c3ccccc3)c(=O)c2S1 (stereo not drawn)
RESULT: 0.0
